Form field: inhibitory concentration (one value per entry).
- Tested on: Monocyte
- Protocol: Inhibition of LPS-induced TNFalpha production in human monocytes by ELISA
- Assay type: functional
Field: numeric (µM). Do not append units.

Returns the measured inhibitory concentration for the input compound. Input: Cc1ncn(CCN2CCOCC2)c1CNc1ccc2ncc(C#N)c(Nc3ccc(F)c(Cl)c3)c2c1
0.7

###

- Assayed System: Mitogen-activated protein kinase kinase kinase 8 (Homo sapiens, UniProt P41279)
- Sequence (P41279 whole entry): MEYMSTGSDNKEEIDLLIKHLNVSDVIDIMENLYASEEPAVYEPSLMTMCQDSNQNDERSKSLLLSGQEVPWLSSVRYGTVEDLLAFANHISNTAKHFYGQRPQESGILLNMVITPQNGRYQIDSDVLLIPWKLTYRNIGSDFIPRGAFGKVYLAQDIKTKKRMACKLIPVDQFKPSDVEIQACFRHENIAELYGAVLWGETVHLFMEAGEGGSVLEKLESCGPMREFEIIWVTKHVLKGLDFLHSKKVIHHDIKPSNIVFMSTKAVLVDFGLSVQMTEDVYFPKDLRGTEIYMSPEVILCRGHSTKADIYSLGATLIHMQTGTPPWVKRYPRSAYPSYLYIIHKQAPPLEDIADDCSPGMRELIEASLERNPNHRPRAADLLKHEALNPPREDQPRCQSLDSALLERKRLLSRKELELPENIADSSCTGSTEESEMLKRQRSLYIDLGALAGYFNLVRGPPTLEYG
- Protocol: Inhibition of Tpl2 kinase by ELISA
Readout Name: pIC50
By convention, pIC50 is the negative base-10 log of a molar concentration.

>>> value_reported("N#Cc1cnc2ccc(NCC3CCCN3)cc2c1Nc1ccc(F)c(Cl)c1 (stereo not drawn)")
4.52
>>> value_reported("N#Cc1cnc2cnc(NCc3ccccc3)cc2c1Nc1ccc(F)c(Cl)c1")
6.85
>>> value_reported("N#Cc1cnc2ccc(NCc3cccc[n+]3[O-])cc2c1Nc1ccc(F)c(Cl)c1")
7.96
>>> value_reported("N#Cc1cnc2ccc(NCC3CCCO3)cc2c1Nc1ccc(F)c(Cl)c1 (stereo not drawn)")
5.66
>>> value_reported("N#Cc1cnc2ccc(NCc3ccc(S(N)(=O)=O)cc3)cc2c1Nc1ccc(F)c(Cl)c1")
6.96
>>> value_reported("N#Cc1cnc2ccc(NCc3ccccc3)cc2c1Nc1ccc(F)c(Cl)c1")
6.68
>>> value_reported("Cc1nc2ccc(NCc3cnc[nH]3)cc2c(Nc2ccc(F)c(Cl)c2)c1C#N")
4.72
>>> value_reported("N#Cc1cnc2ccc(NS(=O)(=O)c3ccccc3)cc2c1Nc1ccc(F)c(Cl)c1")
4.94

Name the recorded pIC50 for N#Cc1cnc2ccc(NCc3ccccn3)cc2c1Nc1ccc(F)c(Cl)c1 .
7.05

Follow-up entry: CC(Nc1ccc2ncc(C#N)c(Nc3ccc(F)c(Cl)c3)c2c1)c1ccccn1 (stereo not drawn)
7.22

Now try CCc1ncc(CNc2ccc3ncc(C#N)c(Nc4ccc(F)c(Cl)c4)c3c2)[nH]1 .
6.19
